The reported numbers originate from the supplement of paper PMC3545927.

TARGET_DESC: furin, P09958;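 further: purified furin at 1:10 enzyme:substrate in 50 mM HEPES pH 7.5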
Sequence (P09958 whole entry): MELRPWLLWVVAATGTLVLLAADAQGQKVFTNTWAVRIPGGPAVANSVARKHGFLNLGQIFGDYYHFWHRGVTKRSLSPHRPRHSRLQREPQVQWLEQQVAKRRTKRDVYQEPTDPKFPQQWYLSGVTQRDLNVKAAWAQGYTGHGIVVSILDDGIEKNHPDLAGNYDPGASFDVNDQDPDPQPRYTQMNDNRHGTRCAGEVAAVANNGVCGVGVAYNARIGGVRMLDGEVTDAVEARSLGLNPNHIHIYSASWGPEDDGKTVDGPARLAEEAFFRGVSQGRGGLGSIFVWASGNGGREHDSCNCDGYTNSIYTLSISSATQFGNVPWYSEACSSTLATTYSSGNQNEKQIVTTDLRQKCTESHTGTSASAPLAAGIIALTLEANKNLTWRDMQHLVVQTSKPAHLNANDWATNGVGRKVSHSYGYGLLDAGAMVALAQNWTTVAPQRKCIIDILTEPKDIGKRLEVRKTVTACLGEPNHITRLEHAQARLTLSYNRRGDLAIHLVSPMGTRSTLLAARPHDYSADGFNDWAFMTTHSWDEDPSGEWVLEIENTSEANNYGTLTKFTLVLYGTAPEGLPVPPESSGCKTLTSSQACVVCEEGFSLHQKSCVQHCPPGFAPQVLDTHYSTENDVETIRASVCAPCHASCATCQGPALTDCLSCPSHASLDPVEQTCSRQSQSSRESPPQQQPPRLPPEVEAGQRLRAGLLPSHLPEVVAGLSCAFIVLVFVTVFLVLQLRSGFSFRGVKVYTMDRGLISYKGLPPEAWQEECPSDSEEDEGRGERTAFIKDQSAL
PROTOCOL_DESCRIPTION: furin cleavage Z-score vs untreated control; higher = more cleavage, active = 3.5 or more, inactive = 1 or less, 8 variable residues between constant flanks
STUDY_CONDITIONS: 7.5 min
Some of the results follow. The hit rate among all sequences tested is not known here.
READOUT_LABEL: furin cleavage Z-score

CARQKRSSEAAGNASASA [FS-3037]	9.89 (active)

Problem: Please look up its furin cleavage Z-score: CAPCAAEEQKAGNASASA [HC1377]
Result: 0.0863 (inactive)

Problem: Please look up its furin cleavage Z-score: CAAQQTRGLLAGNASASA [HC677]
Result: -1.39 (inactive)

Problem: Please look up its furin cleavage Z-score: CARKRRVRKDAGNASASA [FS-1560]
Result: 8.86 (active)

Problem: Please look up its furin cleavage Z-score: CADHLEFWEGAGNASASA [HC937]
Result: 0.211 (inactive)

Problem: Please look up its furin cleavage Z-score: CATKLITWGAAGNASASA [HC651]
Result: 0.877 (inactive)

Problem: Please look up its furin cleavage Z-score: CATTPESGSWAGNASASA [HC53]
Result: -0.759 (inactive)

Problem: Please look up its furin cleavage Z-score: CAQEMGGNITAGNASASA [HC1278]
Result: 0.989 (inactive)

Problem: Please look up its furin cleavage Z-score: CASKGRRRKDAGNASASA [FS-1656]
Result: 5.25 (active)

Problem: Please look up its furin cleavage Z-score: CARKRRSLGDAGNASASA [FS-2976]
Result: 11.1 (active)

Problem: Please look up its furin cleavage Z-score: CARKRRVLTPAGNASASA [FS-2979]
Result: -0.402 (inactive)

Problem: Please look up its furin cleavage Z-score: CACTMLVCGDAGNASASA [HC1526]
Result: -1.57 (inactive)

Problem: Please look up its furin cleavage Z-score: CAAVPRLRRDAGNASASA [FS-644]
Result: 11.8 (active)

Problem: Please look up its furin cleavage Z-score: CAKKTPMGFSAGNASASA [HC1476]
Result: -0.403 (inactive)

Problem: Please look up its furin cleavage Z-score: CACVPRMRRPAGNASASA [FS-753]
Result: 0.288 (inactive)
